These measurements were taken from patent US20260049134A1.

experimentalSystem: T1, PTP4A3 (PRL-3)
T1 construct: coated protein in the ELISA; also called His-PTP4A3 (R&D Systems)
T1 sequence (chain, as listed by the source limits assumed): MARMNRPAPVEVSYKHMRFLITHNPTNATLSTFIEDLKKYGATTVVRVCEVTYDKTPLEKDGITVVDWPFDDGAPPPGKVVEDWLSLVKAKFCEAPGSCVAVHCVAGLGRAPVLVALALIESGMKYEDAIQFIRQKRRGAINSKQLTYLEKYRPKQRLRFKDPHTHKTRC
assayRemarks: ELISA on coated His-PTP4A3, 150 ng IgG1; None 0.085
Answer each item with its documented ELISA Absorbance (405 nm-570 nm).

// ELISA Absorbance (405 nm-570 nm) lookup, key: HW-101 chimeric rabbit-human IgG1 LA/LA/PG (antibody, V domains shown, Fc-silenced (L234A/L235A/P329G) IgG1, lambda; Alexa Fluor 647-labeled in single-step flow cytometry; Cluster C-97) VH: QEQLVESGGRLVTPGTPLTLTCKASGFSLGKYDMSWVRQAPGKGLEWIGTIYAGSGSTWYASWAKGRFTISKTSTTVDLKMTSLTTEDTATYFCARDFLGVNSIWGPGTLVTISS VL: SFVLTQPASVQVNLGQTVSLTCTADTLSRSYASWYQQKPDQAPVLLIHRDTSRPSGVPDRFSGSNSGNTATLTISGAQAGDEADYYCATSDGSGSNFHFVFGGGTQLTVTG
0.065

# lookup: ELISA Absorbance (405 nm-570 nm) of HW-42 chimeric rabbit-human IgG1 LA/LA/PG (antibody, V domains shown, Fc-silenced (L234A/L235A/P329G) IgG1, lambda; Alexa Fluor 647-labeled in single-step flow cytometry; Cluster C-1) VH: QSVKESEGGLFKPADTLTLTCTVSGFSLSSNEISWVRQAPGEGLEYIGIIDTGGRAYYAVWARSRSTITRNTNLNTVTLKMTSLTAADTATYFCARGGVDTEWYAFSSWGPGTLVTVPS VL: SFVLTQPASVQVNLGQTVSLTCTADTLSRRYASWYQQKPGQAPVLLIFRDTSRPSGVPDRFSGSSSGDTATLTISGAQAGDEADYYCATSDGSGSNYQYVFGGGTQLTVTG
0.096

Give its ELISA Absorbance (405 nm-570 nm) value. Item: HW-1 chimeric rabbit-human IgG1 LA/LA/PG (antibody, V domains shown, Fc-silenced (L234A/L235A/P329G) IgG1, lambda; Alexa Fluor 647-labeled in single-step flow cytometry; Prototype of cluster C-1) VH: QSLEESGGGLFKPTDTLTLTCTASGFSLGSSYAISWVRQAPGKELEWIGTIDSGRAYYARWAKSRSTITRNTNENTVTLKMTSLTAADTATYFCARDLIPTYSQDIWGPGTLVTISS VL: SFVLTQPASVQVNLGQTVSLTCTADTLSRRYASWYQQKPGQAPVLLIYRDTSRPSGVPDRFSGSSSGNTATLTISGAQAGDEADYYCATSDGSGNSYQYVFGGGTQLTVTS
0.081

Please report the recorded ELISA Absorbance (405 nm-570 nm) for HW-17 chimeric rabbit-human IgG1 LA/LA/PG (antibody, V domains shown, Fc-silenced (L234A/L235A/P329G) IgG1, lambda; Alexa Fluor 647-labeled in single-step flow cytometry; Cluster C-1) VH: QSLGESRGRLVTPDETLTLTCTVSGIDLSSNAMSWVRQAPGEGLEWIGTINTGGRAYYASWAKGRFTISRTSTTVDLKMTSLTTEDTATYFCARERYSDGRAYDIWGPGTLVTISS VL: SFVLTQPASVQVNLGQTVSLTCTADTLSRRYASWYQQKPGQAPVLLIYTDSNRPSGIPDRFSGSSSGNTATLTISGAQAGDEADYYCATDDGSGSIYQYVFGGGTQLTVTG .
0.072

Given the binder TH9-0022 (antibody, human IgG1, kappa, L234A L235A, V domains shown, also called TH9-022; negative control) VH: QSLEESGGRLVTPGTPLTLTCTVSGFSLSSYAMNWVRQAPGKGLEWIGIINSYGSTYYASWAKGRFTISKTSTTVDLKITSPTTEDTATYFCARVTYDSYGYGYAPYGMDLWGPGTLVTVSS VL: LVMTQTPSSTSNAVGGTVTIKCQASQSIGNVLAWYQQKPGQPPKLLIYAASTLASGVPSRVGGSRSGTEYTLTISGVQREDAATYYCLGSDSDSDIAFGGGTELEILR , what is its reported ELISA Absorbance (405 nm-570 nm)?
0.092
